# Test system: Exiguobacterium undea (DSM14481)
# protocol description: Lysozyme activity turbidity assay (optical density drop at 540 nm)
# Assay type: biochemical, Exiguobacterium undae
# condition summary: assay pH 6 (Table 14)
readout label: Lysozyme Activity against Exiguobacterium undae as measured by Optical Density Drop

// below: answered molecules
molecule="SEQ ID NO: 300: mature GH24 lysozyme from Metarhizium sp. XZ2431 (protein, listed as Metarhizium sp., mat_peptide (1)..(247), mature GH24 lysozyme from Metarhizium sp; XZ2431) YPVSADSLNCRAEPNTSSAIKTTYKKGEDVKISCQTEGPSINGNTIWDKTQDGCYVADYYVKTGSSGYVTGKCGGSSPPSGSGFCKTVNKAGLDLITKWEGFVSSPRGDPIGLPTVGYGHLCQKKGCAEVKYKFPLTKATALQLLNDDLPKYTGCLGKLLNSKVKLNDNQWAALTSWVFNVGCGNAQSSSLVRRLNNGENPNTVAPSELPKWKMAGGKVLEGLVKRRADEVRLFKVSSSKGAFPKCQ" readout_value=+++
molecule="SEQ ID NO: 297: mature GH24 lysozyme from Mortierella sp. ZY002 (protein, listed as Mortierella sp., mat_peptide (1)..(245), mature GH24 lysozyme from Mortierella sp; ZY002) YPITGADALHCRSGPGTSYPIQKTLRPPQDIKIQCQEPGTVVNGVSLWDKTQFGCYVSDYYVKTGTGNYVAPRCNSGGSSSACTGLNDAGINLIKEFEGFVPRPAPDPIGLPTVGYGHLCQTKGCGEVKYSFPLTTATATALLKDDLPKYTSCLAKALNGKPKLNKNQWAALASWTFNVGCGNMKSSSLITRLNAGQNPNTVATEELPKWKLAGGKVLPGLVRRRAAEVKLFKTANSSQGYPKCA" readout_value=+++
molecule="SEQ ID NO: 267: mature GH24 lysozyme from Trichoderma harzianum, comprising LED (protein, listed as Trichoderma harzianum, mat_peptide (1)..(248), mature GH24 lysozyme from Trichoderma harzianum, comprising LED) YPITGDVVNCRTGPGTSYAIKKSYKKNQDISISCQTAGTSVNGNSIWDKTADGCYVADYYVKTGSSGYVTKKCTASSGGGSSSSYCKTINSAGVDLIAKWEGFVASPKPDPIGLPTVGYGHLCQQKNCREVKYKFPLTKTTAKELLLDDLPKYTKCLADYLNDKPKLNANQWAALTSWVFNVGCGNAKTSTLVKRLNNGEAANTVAAEELPKWRMAGGKVLPGLEARRKDEVKLFKTASSKQAYPKCQ" readout_value=++++
molecule="SEQ ID NO: 303: mature GH24 lysozyme from Geomyces auratus (protein, listed as Geomyces auratus, mat_peptide (1)..(250), mature GH24 lysozyme from Geomyces auratus) AFPITGSTVNCRTGPGTSHGVKTSYKKGHEVTVSCQTGGTSVNGNSIWDKTSDGCYVADYYVKTGSSGYVKPKCGSSSGGGGGSSCGAPKSNAATVNLIAEFEGFVSHVYTDATGHPTVGYGHLCSNSKCSGIGYSIPISKANAKKLLAKDMAIAEKCITAMINKSRTLNLNQYGALVSWAFNEGCGAAKSSTLIKRINNGEKPSTVIPQELPKWVYGGSSVLPGLVRRRNAEIALAKKATSSKALPAHC" readout_value=++++

--- query ---
Reported Lysozyme Activity against Exiguobacterium undae as measured by Optical Density Drop of SEQ ID NO: 291: mature GH24 lysozyme from Trichophaea minuta (protein, listed as Trichophaea minuta, mat_peptide (1)..(245), mature GH24 lysozyme from Trichophaea minuta) YPAKVDLRCRSSPSTSASVVRTYSKGSEIQISCQTTGTSVEGSNVWDKTQHGCYVADYYVKTGHSGIFTTKCGSSSGGGSCKPPPINAATVALIKEFEGFVAKPAPDPIGLPTVGYGHLCKTKGCKEVPYSFPLTQTTATKLLQSDIKTFTSCVSNYVKDSVKLNDNQFGALSSWAFNVGCGNIQTSSLIKRLNAGENPNTVAAQELPKWKYAGGKVLPGLVRRRKAEVALFKKPSSVQAHPPKC : ++++
